Assay: Inhibition of human myosin 2a ATPase activity
endpoint-name: IC50 (µM)
Numbers only, in µM.

Sure, the documented IC50 for `O=C1c2ccc([N+](=O)[O-])cc2N=C2N(c3ccccc3)CC[C@@]12O` is 28

----------
Assay: Inhibition of Meleagris gallopavo smooth muscle myosin 2 ATPase activity
endpoint-name: pIC50
One number for each entry, as −log10 of the molar value.

Memo: Cc1ccc2c(c1)C(=O)C1(O)CCN(c3ccccc3)C1=N2 (racemic) , reported pIC50: 4.10

----------
Assay: Toxicity in zebrafish embryo assessed as mortality at 10 uM in presence 0.4 uJ/cm2 of irradiation measured after 36 hrs relative to control
Assay type: organism-based, Danio rerio
Conditions: zebrafish embryos, read-out: Activity
endpoint-name: mortality at 36 h, 10 µM (%)
Numbers only, in %.

// `Cc1ccc2c(c1)C(=O)[C@]1(O)CCN(c3ccccc3)C1=N2` : mortality at 36 h, 10 µM value = 100

----------
Molecular target: Unconventional myosin-X (Bos taurus, UniProt P79114)
Sequence (P79114 whole entry): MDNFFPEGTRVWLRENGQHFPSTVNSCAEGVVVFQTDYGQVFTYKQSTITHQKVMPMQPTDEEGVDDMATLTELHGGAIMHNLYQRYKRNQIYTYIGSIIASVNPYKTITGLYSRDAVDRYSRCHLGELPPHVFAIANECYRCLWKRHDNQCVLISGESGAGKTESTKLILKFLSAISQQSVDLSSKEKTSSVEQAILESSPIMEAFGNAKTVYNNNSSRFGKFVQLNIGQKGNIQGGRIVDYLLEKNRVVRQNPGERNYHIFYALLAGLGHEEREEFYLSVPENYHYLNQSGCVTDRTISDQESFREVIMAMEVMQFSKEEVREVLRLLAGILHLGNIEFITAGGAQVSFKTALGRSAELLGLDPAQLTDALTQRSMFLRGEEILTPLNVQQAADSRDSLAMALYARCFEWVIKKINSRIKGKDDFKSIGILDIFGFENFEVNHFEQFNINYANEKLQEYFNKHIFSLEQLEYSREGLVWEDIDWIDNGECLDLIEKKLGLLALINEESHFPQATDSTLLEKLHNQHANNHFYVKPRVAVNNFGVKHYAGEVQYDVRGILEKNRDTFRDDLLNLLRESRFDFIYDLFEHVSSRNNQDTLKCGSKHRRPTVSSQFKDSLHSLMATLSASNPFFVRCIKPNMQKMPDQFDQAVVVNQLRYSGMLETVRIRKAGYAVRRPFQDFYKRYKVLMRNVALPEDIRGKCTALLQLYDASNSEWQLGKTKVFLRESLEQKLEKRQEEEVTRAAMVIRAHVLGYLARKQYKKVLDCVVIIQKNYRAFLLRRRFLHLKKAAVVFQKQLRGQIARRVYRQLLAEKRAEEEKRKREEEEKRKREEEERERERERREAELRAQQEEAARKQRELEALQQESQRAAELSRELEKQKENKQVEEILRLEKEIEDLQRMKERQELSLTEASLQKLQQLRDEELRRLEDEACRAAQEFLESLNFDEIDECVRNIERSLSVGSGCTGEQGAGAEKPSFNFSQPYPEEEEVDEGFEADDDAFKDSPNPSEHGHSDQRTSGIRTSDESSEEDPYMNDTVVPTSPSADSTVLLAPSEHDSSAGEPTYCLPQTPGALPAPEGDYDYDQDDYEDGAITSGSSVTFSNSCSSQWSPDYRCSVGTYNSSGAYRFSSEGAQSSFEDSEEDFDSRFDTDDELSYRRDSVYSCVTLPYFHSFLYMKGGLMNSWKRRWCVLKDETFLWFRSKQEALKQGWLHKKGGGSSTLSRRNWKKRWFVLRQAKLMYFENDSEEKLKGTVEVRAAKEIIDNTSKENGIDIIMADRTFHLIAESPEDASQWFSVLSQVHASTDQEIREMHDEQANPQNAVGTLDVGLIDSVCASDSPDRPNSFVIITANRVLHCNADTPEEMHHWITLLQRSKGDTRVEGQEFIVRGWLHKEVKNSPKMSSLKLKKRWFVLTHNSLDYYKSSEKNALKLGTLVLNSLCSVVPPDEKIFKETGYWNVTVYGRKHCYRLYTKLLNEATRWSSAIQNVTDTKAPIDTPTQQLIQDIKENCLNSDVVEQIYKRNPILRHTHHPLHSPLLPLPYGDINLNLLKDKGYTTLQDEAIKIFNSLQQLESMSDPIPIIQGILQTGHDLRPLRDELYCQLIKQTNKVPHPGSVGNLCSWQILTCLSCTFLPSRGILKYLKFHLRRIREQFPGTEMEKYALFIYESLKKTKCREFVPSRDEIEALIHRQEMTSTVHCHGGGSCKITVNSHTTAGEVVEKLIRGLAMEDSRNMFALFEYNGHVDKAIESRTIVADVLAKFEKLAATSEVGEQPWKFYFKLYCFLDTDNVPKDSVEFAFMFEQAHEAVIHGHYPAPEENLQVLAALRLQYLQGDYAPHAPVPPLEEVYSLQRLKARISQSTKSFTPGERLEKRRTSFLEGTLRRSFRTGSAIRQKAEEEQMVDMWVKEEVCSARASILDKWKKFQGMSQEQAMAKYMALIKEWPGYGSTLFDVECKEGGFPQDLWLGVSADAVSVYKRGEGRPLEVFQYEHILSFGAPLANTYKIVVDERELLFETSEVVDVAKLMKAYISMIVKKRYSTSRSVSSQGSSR
endpoint-name: IC50

# compound Cc1ccc2c(c1)C(=O)C1(O)CCN(c3ccccc3)C1=N2 (racemic) ; its IC50 = > 150 µM

----------
Molecular target: Myosin-2 heavy chain, non muscle (Acanthamoeba castellanii, UniProt P05659)
Sequence (P05659 whole entry): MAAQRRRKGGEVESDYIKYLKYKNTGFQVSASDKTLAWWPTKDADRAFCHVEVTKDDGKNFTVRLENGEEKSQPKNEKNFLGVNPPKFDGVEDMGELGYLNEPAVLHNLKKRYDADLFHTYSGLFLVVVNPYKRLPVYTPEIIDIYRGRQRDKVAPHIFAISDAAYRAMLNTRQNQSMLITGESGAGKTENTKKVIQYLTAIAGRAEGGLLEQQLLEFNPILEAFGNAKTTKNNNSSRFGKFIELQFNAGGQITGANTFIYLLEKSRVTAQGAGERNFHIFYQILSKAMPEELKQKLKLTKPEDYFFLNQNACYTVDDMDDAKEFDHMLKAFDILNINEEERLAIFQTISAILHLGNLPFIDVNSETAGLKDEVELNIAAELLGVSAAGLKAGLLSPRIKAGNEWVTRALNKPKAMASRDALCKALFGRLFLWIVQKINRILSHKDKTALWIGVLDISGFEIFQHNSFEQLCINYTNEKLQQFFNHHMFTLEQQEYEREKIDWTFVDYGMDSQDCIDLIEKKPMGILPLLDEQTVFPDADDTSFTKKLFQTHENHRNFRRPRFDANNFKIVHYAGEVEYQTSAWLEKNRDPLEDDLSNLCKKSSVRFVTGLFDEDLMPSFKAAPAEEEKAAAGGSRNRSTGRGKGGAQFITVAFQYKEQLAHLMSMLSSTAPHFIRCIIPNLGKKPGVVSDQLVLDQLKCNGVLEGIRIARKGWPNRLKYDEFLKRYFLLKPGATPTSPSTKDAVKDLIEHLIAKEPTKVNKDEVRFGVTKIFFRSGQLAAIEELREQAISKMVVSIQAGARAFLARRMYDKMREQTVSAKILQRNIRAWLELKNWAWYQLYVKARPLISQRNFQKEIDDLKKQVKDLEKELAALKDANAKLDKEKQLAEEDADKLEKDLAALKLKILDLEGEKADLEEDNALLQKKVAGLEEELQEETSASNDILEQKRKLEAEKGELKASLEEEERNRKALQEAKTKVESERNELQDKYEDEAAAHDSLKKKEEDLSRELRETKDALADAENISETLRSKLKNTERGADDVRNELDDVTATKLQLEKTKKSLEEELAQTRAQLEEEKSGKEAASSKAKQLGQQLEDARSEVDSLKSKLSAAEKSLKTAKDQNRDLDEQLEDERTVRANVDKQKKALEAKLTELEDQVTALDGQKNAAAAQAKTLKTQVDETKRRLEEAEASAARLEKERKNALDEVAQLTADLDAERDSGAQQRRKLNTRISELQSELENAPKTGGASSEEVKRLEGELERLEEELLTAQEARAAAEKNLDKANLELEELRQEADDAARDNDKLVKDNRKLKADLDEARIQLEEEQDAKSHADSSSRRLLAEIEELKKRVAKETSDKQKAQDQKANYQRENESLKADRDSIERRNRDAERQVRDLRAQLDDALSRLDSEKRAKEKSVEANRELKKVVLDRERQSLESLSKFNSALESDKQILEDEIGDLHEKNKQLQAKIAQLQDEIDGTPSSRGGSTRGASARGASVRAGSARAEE
endpoint-name: pIC50
Answers are plain numbers, as −log10 of the molar value.

// pIC50 value for Cc1ccc2c(c1)C(=O)C1(O)CCN(c3ccccc3)C1=N2 (racemic) : 4.08

----------
Species on record: Oryctolagus cuniculus
Assay: Inhibition of rabbit skeletal myosin 2 ATPase activity at 50 uM relative to control
For each record, write down the corresponding inhibition.
Numbers only, in %.

Reference set, count: 3
>  <compound-string>
Cc1ccc2c(c1)N=C1N(c3ccccc3)CC[C@@]1(O)C2=O

>  <measurement-unit>
%

>  <inhibition>
94

$$$$
>  <compound-string>
Cc1cccc2c1C(=O)[C@]1(O)CCN(c3ccccc3)C1=N2

>  <measurement-unit>
%

>  <inhibition>
95

$$$$
>  <compound-string>
Cc1cccc2c1N=C1N(c3ccccc3)CC[C@@]1(O)C2=O

>  <measurement-unit>
%

>  <inhibition>
72

$$$$

`O=C1c2ccccc2N=C2N(c3ccccc3)CC[C@@]12O` yielded inhibition of 95
